Ref: ChEMBL document CHEMBL1127126

- Tested System: Substance-P receptor (Homo sapiens, UniProt P25103)
- Sequence (P25103 whole entry): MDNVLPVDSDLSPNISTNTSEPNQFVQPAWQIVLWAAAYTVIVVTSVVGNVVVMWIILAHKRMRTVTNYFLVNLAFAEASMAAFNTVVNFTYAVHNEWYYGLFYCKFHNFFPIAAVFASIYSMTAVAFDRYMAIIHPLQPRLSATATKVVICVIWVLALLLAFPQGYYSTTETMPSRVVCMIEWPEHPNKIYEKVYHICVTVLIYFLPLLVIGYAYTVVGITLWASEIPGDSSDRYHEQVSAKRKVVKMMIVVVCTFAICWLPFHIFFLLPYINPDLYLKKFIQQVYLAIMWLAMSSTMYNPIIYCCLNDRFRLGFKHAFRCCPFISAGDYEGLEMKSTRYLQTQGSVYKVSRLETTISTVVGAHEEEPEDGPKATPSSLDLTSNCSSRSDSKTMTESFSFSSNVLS
Readout Kind: IC50

Check Substance-P receptor (Homo sapiens, UniProt P25103) data and give IC50 for c1ccc([C@H]2NCCC[C@]23CC[C@H](c2ccccc2)N3)cc1 .
> 1000 nM
